# measuredOn: T1, Factor VIIIa (FVIIIa), from recombinant FVIII (Kogenate FS; Bayer healthcare) activated with alpha-thrombin (UniProt P00451 20-2351)
# T1 sequence (looked up): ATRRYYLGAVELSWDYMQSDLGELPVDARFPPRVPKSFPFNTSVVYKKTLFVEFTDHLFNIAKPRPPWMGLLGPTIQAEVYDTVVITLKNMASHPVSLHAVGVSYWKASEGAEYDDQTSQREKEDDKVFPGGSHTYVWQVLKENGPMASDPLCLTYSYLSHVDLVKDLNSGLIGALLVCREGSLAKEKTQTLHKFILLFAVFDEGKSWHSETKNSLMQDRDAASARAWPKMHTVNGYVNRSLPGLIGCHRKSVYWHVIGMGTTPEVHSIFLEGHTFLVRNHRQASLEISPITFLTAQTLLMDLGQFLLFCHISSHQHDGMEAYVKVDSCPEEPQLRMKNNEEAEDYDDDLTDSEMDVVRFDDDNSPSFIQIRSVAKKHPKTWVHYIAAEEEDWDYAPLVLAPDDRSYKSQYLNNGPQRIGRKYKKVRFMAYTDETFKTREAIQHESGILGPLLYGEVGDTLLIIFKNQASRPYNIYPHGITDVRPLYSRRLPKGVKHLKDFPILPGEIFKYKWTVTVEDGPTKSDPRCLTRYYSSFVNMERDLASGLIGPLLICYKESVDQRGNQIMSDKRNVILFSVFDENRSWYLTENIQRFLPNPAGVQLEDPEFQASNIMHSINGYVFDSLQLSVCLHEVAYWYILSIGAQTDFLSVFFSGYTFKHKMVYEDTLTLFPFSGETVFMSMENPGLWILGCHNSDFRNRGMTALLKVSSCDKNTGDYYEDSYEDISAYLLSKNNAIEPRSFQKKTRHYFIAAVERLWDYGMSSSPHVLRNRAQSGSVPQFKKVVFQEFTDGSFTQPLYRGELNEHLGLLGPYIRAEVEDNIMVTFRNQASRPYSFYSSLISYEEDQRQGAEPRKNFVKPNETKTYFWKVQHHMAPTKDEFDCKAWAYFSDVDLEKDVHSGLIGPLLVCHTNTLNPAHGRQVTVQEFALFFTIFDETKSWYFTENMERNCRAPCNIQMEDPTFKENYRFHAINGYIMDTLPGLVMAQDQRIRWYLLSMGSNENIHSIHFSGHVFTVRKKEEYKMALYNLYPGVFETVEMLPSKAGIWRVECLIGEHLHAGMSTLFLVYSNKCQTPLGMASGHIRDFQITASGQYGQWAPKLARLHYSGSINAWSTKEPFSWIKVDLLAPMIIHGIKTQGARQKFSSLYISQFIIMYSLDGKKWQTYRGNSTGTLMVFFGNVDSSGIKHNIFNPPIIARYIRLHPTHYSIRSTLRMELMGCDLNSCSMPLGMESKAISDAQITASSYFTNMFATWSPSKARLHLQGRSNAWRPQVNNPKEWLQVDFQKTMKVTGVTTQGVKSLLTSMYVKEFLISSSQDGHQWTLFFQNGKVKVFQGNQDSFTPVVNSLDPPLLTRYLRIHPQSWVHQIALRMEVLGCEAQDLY
# runDescription: ratio of KD-app of Catalyst Biosciences WT FIXa to KD-app of the variant, same Xase assay
Reported log10 of KD-WT/KD-mut values for the following binders.
The common logarithm of KD-WT/KD-mut in fold is what is listed.

Here's what some known entries look like.
- binder: "FIXa variant K228N/K247N/N249S/R318Y/R338E/R403E/E410N (enzyme, also called K63N/K82N/N84S/R150Y/R170E/R233E/E240N) light: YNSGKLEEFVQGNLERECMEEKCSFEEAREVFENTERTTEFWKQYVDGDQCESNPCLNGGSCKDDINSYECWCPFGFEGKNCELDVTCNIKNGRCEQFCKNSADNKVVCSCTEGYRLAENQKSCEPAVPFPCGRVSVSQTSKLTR heavy: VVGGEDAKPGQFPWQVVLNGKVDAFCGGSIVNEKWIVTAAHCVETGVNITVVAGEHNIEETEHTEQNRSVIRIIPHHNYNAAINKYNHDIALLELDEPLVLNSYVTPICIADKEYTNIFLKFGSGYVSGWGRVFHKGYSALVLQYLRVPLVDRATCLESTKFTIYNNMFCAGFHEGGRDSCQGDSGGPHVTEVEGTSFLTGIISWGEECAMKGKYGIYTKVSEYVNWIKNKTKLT"
  log10 of KD-WT/KD-mut: -0.05
- binder: "FIXa variant K228N/K247N/N249S (enzyme, also called K63N/K82N/N84S) light: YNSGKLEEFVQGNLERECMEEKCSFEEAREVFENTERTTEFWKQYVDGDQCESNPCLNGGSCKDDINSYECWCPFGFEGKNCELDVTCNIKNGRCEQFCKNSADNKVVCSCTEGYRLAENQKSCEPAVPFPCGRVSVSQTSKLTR heavy: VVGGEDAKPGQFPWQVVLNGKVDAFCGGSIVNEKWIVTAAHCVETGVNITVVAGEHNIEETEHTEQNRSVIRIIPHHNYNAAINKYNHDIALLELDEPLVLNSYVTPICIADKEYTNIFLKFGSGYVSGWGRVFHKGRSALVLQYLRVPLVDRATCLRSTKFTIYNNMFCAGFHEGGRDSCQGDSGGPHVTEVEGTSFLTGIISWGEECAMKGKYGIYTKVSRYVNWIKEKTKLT"
  log10 of KD-WT/KD-mut: -0.10
- binder: "FIXa variant R318Y/R338E/T343R/N346D/R403E/E410N (enzyme, also called R150Y/R170E/T175R/N178D/R233E/E240N) light: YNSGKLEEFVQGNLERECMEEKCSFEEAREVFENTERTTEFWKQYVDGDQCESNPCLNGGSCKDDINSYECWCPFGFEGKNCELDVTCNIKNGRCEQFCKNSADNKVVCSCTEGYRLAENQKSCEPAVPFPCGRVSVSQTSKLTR heavy: VVGGEDAKPGQFPWQVVLNGKVDAFCGGSIVNEKWIVTAAHCVETGVKITVVAGEHNIEETEHTEQKRNVIRIIPHHNYNAAINKYNHDIALLELDEPLVLNSYVTPICIADKEYTNIFLKFGSGYVSGWGRVFHKGYSALVLQYLRVPLVDRATCLESTKFRIYDNMFCAGFHEGGRDSCQGDSGGPHVTEVEGTSFLTGIISWGEECAMKGKYGIYTKVSEYVNWIKNKTKLT"
  log10 of KD-WT/KD-mut: 0.11

Query: Recorded log10 of KD-WT/KD-mut for FIXa variant R318Y/R338E/R403E/E410N/T412V (enzyme, also called R150Y/R170E/R233E/E240N/T242V) light: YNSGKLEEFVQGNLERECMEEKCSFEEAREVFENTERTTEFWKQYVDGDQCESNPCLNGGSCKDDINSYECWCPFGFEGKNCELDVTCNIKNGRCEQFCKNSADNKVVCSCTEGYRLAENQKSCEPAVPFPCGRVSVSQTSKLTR heavy: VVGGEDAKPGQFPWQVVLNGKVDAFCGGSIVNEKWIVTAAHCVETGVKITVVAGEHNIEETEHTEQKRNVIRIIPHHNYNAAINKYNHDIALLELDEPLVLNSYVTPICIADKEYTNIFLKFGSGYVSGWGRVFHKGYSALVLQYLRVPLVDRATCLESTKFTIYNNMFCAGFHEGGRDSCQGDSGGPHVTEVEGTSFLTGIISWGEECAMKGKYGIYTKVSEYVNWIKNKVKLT , please?
Result: 0.23
